Hey, just so you know, these numbers are from ChEMBL document CHEMBL1201862.

Test system: NCI-H23
Method: NCI tumour cell line growth inhibition, 48 h
Calls of active or inactive are those of the source. Cut-off read from the data, not from the text of the source: active = GI50 up to about 1.1 µM and inactive = higher.
Readout name: GI50

Entry `ClCCN1CCC2(CC1)SSC1(CCN(CCCl)CC1)S2` needs its GI50 filled in; supply it.
49.7 µM (inactive)

***
Return value of GI50 for input `O=c1c(F)cn2c(=O)n1CCCCCCCn1c(=O)c(F)cn(c1=O)CCCCCCC2` , no commentary.
> 100 µM (inactive)

Name the recorded GI50 of the compound listed here: `CCC(=O)c1cc(C(=O)C(=S)SC)cc(C(=O)C(=S)SC)c1`
> 76.7 µM (inactive)

Answer with the recorded GI50 for the compound listed here: `CNc1nc(OC)c2c(n1)n(C)c[n+]2C`
> 100 µM (inactive)

For the compound `COC1=CC(=O)C2=C(C1=O)[C@H]1CC[C@]3(C)[C@@H](OC(C)=O)CC[C@H]3[C@@H]1CC2` , give its reported GI50.
40.3 µM (inactive)

----------
Parameter GI50: see the listing below.
System: SW-620
Method: NCI tumour cell line growth inhibition, 48 h
The source made the active and inactive calls. Rule as the data show it: active = GI50 up to about 1.1 µM and inactive = higher.

The following compounds have reported results that may help.
Annotate the compound `O=C(/C=C/c1ccc(OCCCCCCCCCCOc2ccc(/C=C/C(=O)c3ccc(Cl)cc3)cc2)cc1)c1ccc(Cl)cc1` with its measured GI50.
> 100 µM (inactive)

For `O=C(c1ccccc1)N1C(=S)NC(=N/c2ccccc2)/C1=N\c1ccccc1` , write its GI50.
> 100 µM (inactive)

Please indicate GI50 recorded for `ClCCN1CCOC1=C1C=CC=C1`
> 100 µM (inactive)

Indicate the recorded GI50 value for this compound: `O=c1cc(-c2cccnc2)[nH]c2cc3c(cc12)OCO3`
6.38 µM (inactive)

State its GI50 for this compound: O=c1ccn(C2OC(CN(O)CCC3C(CO)OC(n4ccc(=O)[nH]c4=O)C3O)C(O)C2O)c(=O)[nH]1 (stereo not given)
> 100 µM (inactive)

Further cases:
Determine from records and report GI50 for O=C(Cc1ccccc1)NN1C(=O)C(Cl)C1c1cc(Br)cc(Br)c1O (stereo not given)
7.14 µM (inactive)

Determine from records and report GI50 for `NC(=O)N/N=C(\Cc1cc(=O)oc2cc(O)ccc12)C(=O)Nc1ccccc1C(N)=O`
> 100 µM (inactive)

Write down GI50 measured for item Fc1ccc2nc3n(c2c1)C(c1c(Cl)cccc1Cl)SC3 (stereo not given)
> 100 µM (inactive)

Find the measured GI50 of CC(=O)Nc1nc(C)c(S(=O)(=O)NC(=O)NC2NC(=O)NC2=O)s1 (stereo not given) and report it.
> 100 µM (inactive)

Provide measured GI50 value, entry: `CCC(/C=C/c1ccccc1)=N\Nc1ccc(Cl)c(Cl)c1`
33 µM (inactive)

----------
Tested on: OVCAR-8
Method: NCI tumour cell line growth inhibition, 48 h
Active and inactive are the calls of the source. Cut-off read from the data, not from the text of the source: active = GI50 up to about 1.1 µM and inactive = higher.
Catalogue of GI50 readings, one per entry.

Report GI50 for `CN1CCN(c2n[nH]c(=O)c3c2nnn3Cc2ccccc2)CC1`
> 100 µM (inactive)

Please list GI50 recorded for the compound `CC1(C)C(=O)N(c2ccccc2)C(=O)N1c1nc2ccccc2[nH]1`
> 100 µM (inactive)

Fill in reported GI50 for this entry: `N#CCCCCCOCCOCCOCCOCCOCCCCCC#N`
> 100 µM (inactive)

***
Note GI50 for the compound shown: CC(=O)N(CCc1ccccc1)C(C#N)c1ccc(OCCCCCCCCCCOc2ccc(C(C#N)N(CCc3ccccc3)C(C)=O)cc2)cc1 (stereo unspecified)
23 µM (inactive)

For the compound `CCOC(=O)CC1=N/C(=N/C(=N)N[N+](=O)[O-])SC1` , give its measured GI50 value.
> 100 µM (inactive)

Given C=C1C(=O)OC2CC3(CO3)C3C(O)C(O)CC3(C)CC12 (stereo unspecified) , respond with its GI50.
22.3 µM (inactive)
